All values here come from ChEMBL document CHEMBL5303304.

# Tested on: HEK-293T
# PROTOCOL_DETAILS: Incucyte cell viability with HEK293T; further: unitless GR value; below 1 slowed growth and below 0 cell loss
# Assay type: toxicity, cell-based
# MEASUREMENT_CONTEXT: human, 0 h, 10 µM, compound concentration 10 uM, replicate number 1
# cutoff -0.08 applies to Growth Rate; >= gives fulfilled, < gives not fulfilled

>>> df
                                    compound          group
 0  Cn1nc(C(=O)NCc2ccc(C(=O)O)cc2)cc1-c1ccc2[nH]ccc2c1  not fulfilled
 1           O=C1NCCc2c(OCCCCN3CCCCC3)cccc21      fulfilled
 2  C[S+]([O-])c1ccc(-c2nc(-c3cccc(I)c3)c(-c3ccncc3)[nH]2)cc1 (stereo not drawn)  not fulfilled
 3  CN1C(=O)c2c(nn(Cc3ccc(-c4cccc(F)n4)cc3)c2Nc2ccccc2)N2C1=N[C@@H]1CCC[C@@H]12.O=P(O)(O)O [LENRISPODUN PHOSPHATE]      fulfilled
 4  CCCCc1c(-c2ccccc2)nc(N)nc1-c1ccc(OCc2ccccc2)c(F)c1F  not fulfilled
 5  Cc1nnc2n1-c1sc3c(c1C(c1ccccc1Cl)=NC2)CC(C(=O)N1CCOCC1)C3 (stereo not drawn)      fulfilled
 6     O=C1NC(=NCc2cccs2)SC1=Cc1ccc2ncccc2c1  not fulfilled
 7  CN(C)c1ccc(-c2cc3ncccc3c(OCCCCO)n2)cc1.O=C(O)C(F)(F)F  not fulfilled
 8  O=C(O)CCCCN(CCc1ccccc1OCc1ccc(CCc2ccccc2)cc1)Cc1ccc(C(=O)O)cc1      fulfilled
 9  Cc1[nH]nc2ccc(-c3cncc(OCC(N)Cc4ccccc4)c3)cc12 (stereo not drawn)  not fulfilled
10  CC(=O)N1CCN([C@H]2CCC[C@@H](NC(=O)c3cc4c(F)ccc(C)c4[nH]3)C2)CC1.O=C(O)C(F)(F)F      fulfilled
11  COc1cc(/C=C(\C#N)C(=O)Nc2nnc(C(F)(F)F)s2)ccc1OCc1ccc(C(F)(F)F)cc1C(F)(F)F      fulfilled
12  CC[C@H]1[C@@H](O)[C@@H]2[C@H](CC[C@]3(C)[C@@H]([C@H](C)CCC(=O)O)CC[C@@H]23)[C@@]2(C)CC[C@@H](O)C[C@@H]12      fulfilled
13  CC(=O)c1ccc2c(c1)/C(=C(/NC1CCN(C)CC1)c1ccc3c(c1)OCO3)C(=O)N2  not fulfilled
14         CCN1C(=O)c2cc(C)ccc2N(C)c2ncccc21      fulfilled
15  N[C@@H](CC(=O)O)Cn1nnc(-c2ccc(Oc3ncc(Cl)cc3F)cc2)n1      fulfilled
16  CC#CCC(C)[C@H](O)/C=C/[C@@H]1[C@H]2C/C(=C/CCCC(=O)O)C[C@H]2C[C@H]1O (stereo partly drawn)      fulfilled

----------
Each entry below lists one item and its recorded Growth Rate value.
# Tested on: HEK-293T
# PROTOCOL_DETAILS: Incucyte cell viability with HEK293T; further: unitless GR value; below 1 slowed growth and below 0 cell loss
# Type: toxicity, cell-based
# MEASUREMENT_CONTEXT: human, 0 h, 10 µM, compound concentration 10 uM, replicate number 1
VALUE_TYPE: Growth Rate

>>> df
                                   compound  numeric_readout
0  Cn1ncc(-c2nc(N[C@H]3CC[C@H](N)CC3)ncc2Cl)c1CC1CC1            -0.79
1  CCCOc1cnc(CN/C=C2\C(=O)NC(=O)c3ccc(I)cc32)cc1O             0.51
2  CC(C)(C)c1cc(NC(=O)c2csc(Nc3ccc(Cl)cc3)n2)no1             0.27
3  O=C(NC1CCNCC1)c1n[nH]cc1NC(=O)c1c(Cl)cccc1Cl            -0.17
4  NC(=O)c1sc2nc(N3CCC(NC[C@H](O)c4ccccn4)CC3)cc(C(F)(F)F)c2c1N            -0.64
5  CC(F)(F)CN1C(=O)c2[nH]nc(-c3cccc4[nH]c(=O)oc34)c2C1c1ccc(Oc2cc(C(F)(F)F)cc(C(F)(F)F)c2)cc1 (stereo not drawn)             0.14
6  CS(=O)(=O)O.C[C@H](NC(=O)c1cnc2n1[C@](C)(Cc1ccc(C#N)cc1)C(=O)N2c1cc(Cl)c(F)c(Cl)c1)C(=O)NC1(c2ccccn2)CC1             0.44
7  Cc1sc(C(=O)c2cncnc2N[C@@H]2C[C@H](COS(N)(=O)=O)[C@@H](O)C2)cc1[C@@H]1NCCc2ccc(Cl)cc21            -0.45

----------
# Tested on: Fibroblast
# PROTOCOL_DETAILS: Incucyte cell viability with human fibroblast; further: unitless GR value; below 1 slowed growth and below 0 cell loss
# Assay type: toxicity, cell-based
# MEASUREMENT_CONTEXT: 0 h, 10 µM, compound concentration 10 uM, replicate number 2
# MET = Growth Rate below -0.5 (exclusive); NOT MET = Growth Rate at/above -0.5

COMPOUND	GROUP
COc1cc(-c2cc(-c3cccc(O)c3)cnc2N)cc(OC)c1OC	MET
Oc1c(-c2cccnc2)cnn1-c1ccccn1	NOT MET
CN(C)C(=O)Cn1cc(-c2nc([C@@](C)(c3ccc(-c4cnc(N)nc4)cc3)C3CC3)no2)cn1 [BI 665915]	NOT MET
Fc1ccc(-c2nc(-c3c(F)cccc3F)[nH]c2-c2ccncc2)cc1	NOT MET
O=C(O)[C@]1(Cc2cccc(Nc3nccs3)n2)CC[C@@H](Oc2cccc(Cl)c2F)CC1 [MK-5108]	MET
Cc1ccc(S(=O)(=O)O)cc1.Cn1cc(-c2ccc(F)c(C(F)(F)F)c2)nc1C1CCN(c2ncnc3[nH]ncc23)CC1	MET
OC(CN1CCC(Cc2ccc(F)cc2)CC1)c1ccc(Cl)cc1 (stereo unspecified) [ELIPRODIL]	MET
Cn1cc(-c2ccc(-c3cncc(Cl)c3N3CCC4(CCNC4=O)CC3)cc2)cn1	NOT MET
COc1ccc(F)c(F)c1C(=O)c1cnc(NC2CCN(S(C)(=O)=O)CC2)nc1N [RG-547]	NOT MET
COc1ncc2cc(C(=O)Nc3cc(C(=O)NCc4cccc(Cl)c4)ccc3Cl)c(=O)[nH]c2n1	NOT MET
Br.CO[C@H]1CC=C2CCN3CCC4=C(CC(=O)OC4)[C@]23C1	NOT MET
O=C(Nc1cccc(C(F)(F)F)c1)c1cccc(-n2cc(-c3ccco3)nn2)c1	MET
COc1ccccc1Nc1nc(-c2nn(Cc3c(F)cc(OCCCO)cc3F)c3ccccc23)ncc1OC	MET
Cc1cc(-c2cc3ncccc3c(OC[C@H]3CCCNC3)n2)ccc1N(C)C.O=C(O)C(F)(F)F	MET
Cc1cc(Cn2c(N3CC4(CNC4)C3)nc3cc(Cl)cc(N4CCN(C)CC4)c32)cc(C)c1F	MET
COc1cc(C(=O)NCCOCCOCCOCCC(=O)Nc2cccc3c2C(=O)N(C2CCC(=O)NC2=O)C3=O)ccc1Nc1ncc(C(F)(F)F)c(Oc2cccc3c2C(=O)CC3)n1 (stereo unspecified)	NOT MET
Cn1cnc(Cn2ccc3ccc(CNCc4[nH]c5ccccc5c4[C@@H]4NC(=O)c5ccc(O)cc54)cc32)c1	NOT MET
COc1cc2ncnc(Nc3ccc(Oc4ccccc4)cc3C)c2cc1OC.Cl	MET
C[C@]12CC[C@H](O)CC1=CC[C@@H]1[C@@H]2CC[C@]2(C)C(n3cnc4ccccc43)=CC[C@@H]12 [GALETERONE]	NOT MET
Cc1cc(OC2CCS(=O)(=O)CC2)cc(C)c1-c1cccc(COc2ccc(CCC(=O)O)c(F)c2)c1	NOT MET
Cc1cc2ncnn2cc1Nc1ncc2c(n1)n(C1CCOCC1)c(=O)n2C [AZD-7648]	NOT MET
COC(=O)c1ccc2c(c1)NC(=O)/C2=C(\Nc1ccc(N(C)C(=O)CN2CCN(C)CC2)cc1)c1ccccc1 [NINTEDANIB]	NOT MET
COc1ccccc1S(=O)(=O)Nc1ccc2c(c1)CN(C)C(=O)N2	NOT MET
CCOC(=O)c1ccc(N2C(=O)C(O)=C(C(=O)c3ccc(OC)cc3)C2c2ccc(F)cc2)cc1 (stereo unspecified)	MET
C[C@@H]1C[C@H](N)C[C@H](c2ccncc2NC(=O)c2ccc(F)c(-c3c(F)cccc3F)n2)C1 [LGH-447]	NOT MET
O=C1NC(=NCc2cccs2)SC1=Cc1ccc2ncccc2c1	MET
CCOC(=O)Nc1ccc2c(c1)N(C(=O)CN(CC)CC)c1ccccc1CC2	NOT MET
Cc1cccc(F)c1C(=O)Nc1cnc(-c2cc3c(cc2Cl)OC(F)(F)O3)cn1 [ZEGOCRACTIN]	NOT MET
CC(C)Oc1ccc(Cc2ccc(NC3=NCCN3)cc2)cc1	NOT MET
COCCNc1cc(NC(=O)N2CCCc3cc(CN4CCN(C)CC4=O)c(C=O)nc32)ncc1C#N [FGF401]	NOT MET
CCN1C(=O)C(c2cccc(C(=O)O)c2)C(=O)N(c2ccccc2)c2cc(C(F)(F)F)ccc21 (stereo unspecified)	NOT MET
O=C1Nc2nc(-c3c(O)cccc3OCC3CC3)cc([C@@H]3CCCNC3)c2CO1	MET
CCc1c(-c2ccc3[nH]ncc3c2)cnc(N)c1-c1ccc(O)cc1	NOT MET
NC(=O)c1cc(-c2ccnc(NC3CCCCC3)c2)nc(N2CCNCC2)c1	NOT MET
C[C@@H](c1ccc(F)cc1)n1nnc2cnc3ccc(-c4ccc5ocnc5c4)cc3c21	NOT MET
